# Tested on: Human alphaherpesvirus 2
# Assay comment: Antiviral activity against Herpes Simplex Virus-2(G)
# Assay type: functional
Reported MIC50 values follow for various compounds

Answered examples (2):
CC(C)c1cn([C@H]2C[C@@H]3OP(=O)(O)OC[C@H]3O2)c(=O)[nH]c1=O.N
> 200 mg/L
CCCCCc1cn([C@H]2C[C@@H]3OP(=O)(O)OC[C@H]3O2)c(=O)[nH]c1=O.N
> 400 mg/L

Tell us which MIC50 value is on record for "CCCCCCCCc1cn([C@H]2C[C@@H]3OP(=O)(O)OC[C@H]3O2)c(=O)[nH]c1=O.N" > 200 mg/L
